I'd appreciate it if you could supply IC50 values for the items below.
Molecular target: Rac GTPase-activating protein 1 (Homo sapiens)
Sequence (Q9H0H5 whole entry): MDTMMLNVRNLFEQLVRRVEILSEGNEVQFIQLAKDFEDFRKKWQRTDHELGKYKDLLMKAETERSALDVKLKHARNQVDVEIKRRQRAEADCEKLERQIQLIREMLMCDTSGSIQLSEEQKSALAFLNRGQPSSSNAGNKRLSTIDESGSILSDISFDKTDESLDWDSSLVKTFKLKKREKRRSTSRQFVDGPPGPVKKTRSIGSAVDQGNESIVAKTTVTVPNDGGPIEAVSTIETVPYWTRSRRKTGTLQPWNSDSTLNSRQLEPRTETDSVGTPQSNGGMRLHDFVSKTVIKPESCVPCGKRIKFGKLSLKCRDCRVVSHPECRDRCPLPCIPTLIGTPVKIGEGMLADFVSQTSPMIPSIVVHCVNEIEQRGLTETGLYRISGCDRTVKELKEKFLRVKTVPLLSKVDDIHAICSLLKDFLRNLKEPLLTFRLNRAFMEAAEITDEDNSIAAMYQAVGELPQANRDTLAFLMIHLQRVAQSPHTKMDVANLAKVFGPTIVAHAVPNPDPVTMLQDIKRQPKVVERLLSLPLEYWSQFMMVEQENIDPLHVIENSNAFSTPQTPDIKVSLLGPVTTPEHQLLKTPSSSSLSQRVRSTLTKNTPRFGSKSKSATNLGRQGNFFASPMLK
Experiment: MgcRacGAP GTPase-activating activity inhibitors, confirmation, biochemical, ADP Hunter fluorescence, primary and confirmatory (AID 624330)
Type: functional
Calls of active or inactive are those of the source. How the calls were made is not given here.

See these solved cases before continuing.
compound.string: N#Cc1ccccc1OCCCN1CCC(Cc2ccccc2)CC1
IC50: 132 µM (active)
--
compound.string: Cc1cc(O)nc(N/N=C/c2ccc(O)c(O)c2)n1
IC50: 21.4 µM (active)
--
compound.string: CCc1ccc(O)c(/N=C/c2cccc(C)c2O)c1
IC50: 45.5 µM (active)

Pending compound:
Looking up "CC1=C/C(=C(/c2cc(C)c(O)c(Br)c2)c2ccccc2S(=O)(=O)O)C=C(Br)C1=O" , I see its IC50 listed as 63.5 µM (active)

Just for reference, ChEMBL document CHEMBL1201862 is where these values come from.
